Provide the recorded MIC for the entries that follow.
System: up to 32 different microorganisms
Method description: in vitro antibacterial activity (MIC), agar dilution on Brain Heart Infusion (BHI) agar with Steers replicator
Type: cell-based
Measurement parameters: organism code KK; unit assumed
Expressed in µg/mL, but write only the number.

I have this molecule here, "C=CCO[C@@]1(C)C[C@@H](C)C(=O)[C@H](C)[C@H]2N(N)C(=O)O[C@]2(C)[C@@H](CC)OC(=O)[C@H](C)C(=O)[C@H](C)[C@H]1O[C@@H]1O[C@H](C)C[C@H](N(C)C)[C@H]1O" , and I need its recorded MIC. 0.05

How about "CC[C@H]1OC(=O)[C@H](C)C(=O)[C@H](C)[C@@H](O[C@@H]2O[C@H](C)C[C@H](N(C)C)[C@H]2O)[C@@](C)(OCCNOCc2ccccc2)C[C@@H](C)C(=O)[C@H](C)[C@H]2NC(=O)O[C@@]21C" ? 0.05

Follow-up item: CCC1OC(=O)C(C)C(=O)C(C)C(OC2OC(C)CC(N(C)C)C2O)C(C)(OCC=Cc2ccc3cc(O)c(C(=O)Nc4ccccc4OC)cc3c2)CC(C)C(=O)C(C)C2NC(=O)OC12C (centres unmarked) 0.39

Moving on to CCC1OC(=O)C(C)C(=O)C(C)C(OC2OC(C)CC(N(C)C)C2O)C(C)(OCC=Cc2ccc(F)c3ccccc23)CC(C)C(=O)C(C)C2NC(=O)OC12C (centres unmarked) 0.02

Continue with "CC[C@H]1OC(=O)[C@H](C)C(=O)[C@H](C)[C@@H](O[C@@H]2O[C@H](C)C[C@H](N(C)C)[C@H]2O)[C@@](C)(OCC#Cc2ccc(C(=O)Nc3ccccn3)o2)C[C@@H](C)C(=O)[C@H](C)[C@H]2NC(=O)O[C@@]21C" 0.02

---

Test system: up to 32 different microorganisms
Method description: in vitro antibacterial activity (MIC), agar dilution on Brain Heart Infusion (BHI) agar with Steers replicator
Assay type: cell-based
Measurement parameters: Streptococcus Pneumonia 5649 (code ZZA); unit assumed
Please respond with Met when measured MIC is strictly beneath 0.5 mg/L, and with Not met in all other cases.

Hello, I'm reviewing records and need to know if MIC of CCC1OC(=O)C(C)C(=O)C(C)C(OC2OC(C)CC(N(C)C)C2O)C(C)(OCC=Cc2cncc3ccccc23)CC(C)C(=O)C(C)C2NC(=O)OC12C (stereo not drawn) is below 0.5 mg/L. Could you check? Met

Query C=CCOC1(C)CC(C)C(=O)C(C)C(O)C(C)(O)C(CC)OC(=O)C(C)C(=O)C(C)C1OC1OC(C)CC(N(C)C)C1O (stereo not drawn) next Not met

// same read-out, input: "CC[C@H]1OC(=O)[C@H](C)C(=O)[C@H](C)[C@@H](O[C@@H]2O[C@H](C)C[C@H](N(C)C)[C@H]2O)[C@@](C)(OCC=Cc2cnc3ccccc3c2)C[C@@H](C)C(=O)[C@H](C)[C@H]2NC(=O)O[C@@]21C" Met

Let us now turn to "CC[C@H]1OC(=O)[C@H](C)C(=O)[C@H](C)[C@@H](O[C@@H]2O[C@H](C)C[C@H](N(C)C)[C@H]2O)[C@@](C)(OCCCc2ccccc2)C[C@@H](C)C(=O)[C@H](C)[C@@H](O)[C@]1(C)O" Not met

How about "CC[C@H]1OC(=O)[C@H](C)C(=O)[C@H](C)[C@@H](O[C@@H]2O[C@H](C)C[C@H](N(C)C)[C@H]2O)[C@@](C)(OCC=Cc2ccc(OC)cc2)C[C@@H](C)C(=O)[C@H](C)[C@@H](O)[C@]1(C)O" ? Not met

Follow-up item: CCC1OC(=O)C(C)C(=O)C(C)C(OC2OC(C)CC(N(C)C)C2O)C(C)(OCC=Cc2ccc3ccccc3c2)CC(C)C(=O)C(C)C2NC(=O)OC12C (stereo not drawn) Not met

---

System: up to 32 different microorganisms
Method description: in vitro antibacterial activity (MIC), agar dilution on Brain Heart Infusion (BHI) agar with Steers replicator
Assay type: cell-based
Measurement parameters: organism code EE; unit assumed
Give measured MIC for each item. Keep answers brief.

Please report the recorded MIC for "C=C(C#CCO[C@@]1(C)C[C@@H](C)C(=O)[C@H](C)[C@H]2NC(=O)O[C@]2(C)[C@@H](CC)OC(=O)[C@H](C)C(=O)[C@H](C)[C@H]1O[C@@H]1O[C@H](C)C[C@H](N(C)C)[C@H]1O)c1ccccc1" . 0.2 µg/mL

Also check "CC[C@H]1OC(=O)[C@H](C)C(=O)[C@H](C)[C@@H](O[C@@H]2O[C@H](C)C[C@H](N(C)C)[C@H]2O)[C@@](C)(OCC#Cc2ccc3cc(OC)ccc3c2)C[C@@H](C)C(=O)[C@H](C)[C@H]2NC(=O)O[C@@]21C" 0.1 µg/mL

Also need "CC[C@H]1OC(=O)[C@H](C)C(=O)[C@H](C)[C@@H](O[C@@H]2O[C@H](C)C[C@H](N(C)C)[C@H]2O)[C@@](C)(OCC=NOCc2cccc3ccccc23)C[C@@H](C)C(=O)[C@H](C)[C@H]2NC(=O)O[C@@]21C" , thanks. 0.2 µg/mL

Query "CC[C@H]1OC(=O)[C@H](C)C(=O)[C@H](C)[C@@H](O[C@@H]2O[C@H](C)C[C@H](N(C)C)[C@H]2O)[C@@](C)(OCCNOCc2ccccc2)C[C@@H](C)C(=O)[C@H](C)[C@H]2NC(=O)O[C@@]21C" next 0.39 µg/mL

---

System: up to 32 different microorganisms
Method description: in vitro antibacterial activity (MIC), agar dilution on Brain Heart Infusion (BHI) agar with Steers replicator
Format: cell-based
Measurement parameters: Enterococcus faecism ATCC 8043 (code II); unit assumed
Protocol: Representative compounds of the present invention were assayed in vitro for antibacterial activity as follows: Twelve petri dishes containing successive aqueous dilutions of the test compound mixed with 10 mL of sterilized Brain Heart Infusion (BHI) agar (Difco 0148-01-5) were prepared. Each plate was inoculated with 1:100 (or 1:10 for slow-growing strains, such as Micrococcus and Streptococcus) dilutions of up to 32 different microorganisms, using a Steers replicator block. […]
Measured parameter: MIC
Note: a bare number is incomplete; add the unit.

Param item = "CC[C@H]1OC(=O)[C@H](C)C(=O)[C@H](C)[C@@H](O[C@@H]2O[C@H](C)C[C@H](N(C)C)[C@H]2O)[C@@](C)(OCC=Cc2cnc3ccccc3c2)C[C@@H](C)C(=O)[C@H](C)[C@H]2N(C)C(=O)O[C@]12C" ; retrieve measured MIC. 0.05 µg/mL

Can you handle "CC[C@H]1OC(=O)[C@H](C)C(=O)[C@H](C)[C@@H](O[C@@H]2O[C@H](C)C[C@H](N(C)C)[C@H]2O)[C@@](C)(OCC=Cc2ccc(F)cc2)C[C@@H](C)C(=O)[C@H](C)[C@@H](O)[C@]1(C)O" next? 3.1 µg/mL

Field entry: "CC[C@H]1OC(=O)[C@H](C)C(=O)[C@H](C)[C@@H](O[C@@H]2O[C@H](C)C[C@H](N(C)C)[C@H]2O)[C@@](C)(OCc2ccc3ccccc3c2)C[C@@H](C)C(=O)[C@H](C)[C@H]2NC(=O)O[C@@]21C" 0.2 µg/mL

Repeat for the following compound: "CC[C@H]1OC(=O)[C@H](C)C(=O)[C@H](C)[C@@H](O[C@@H]2O[C@H](C)C[C@H](N(C)C)[C@H]2O)[C@@](C)(OCCCc2cnc3ccccc3c2)C[C@@H](C)C2=NCCN3C(=O)O[C@@]1(C)[C@H]3[C@H]2C" 0.05 µg/mL

How about CCC1OC(=O)C(C)C(=O)C(C)C(OC2OC(C)CC(N(C)C)C2O)C(C)(OCC=Cc2ccc3nc(C)ccc3c2)CC(C)C(=O)C(C)C2NC(=O)OC12C (stereo not drawn) ? 0.05 µg/mL

Please give the result for CC[C@H]1OC(=O)[C@H](C)C(=O)[C@H](C)[C@@H](O[C@@H]2O[C@H](C)C[C@H](N(C)C)[C@H]2O)[C@@](C)(OCC(O)C#N)C[C@@H](C)C(=O)[C@H](C)[C@@H](O)[C@]1(C)O (stereo partly drawn) too. 0.02 µg/mL

How about this compound: CCC1OC(=O)C(C)C(=O)C(C)C(OC2OC(C)CC(N(C)C)C2O)C(C)(OCC=Cc2ccc3[nH]ccc3c2)CC(C)C(=O)C(C)C2NC(=O)OC12C (stereo not drawn) 0.02 µg/mL

Queued: "CC[C@H]1OC(=O)[C@H](C)C(=O)[C@H](C)[C@@H](O[C@@H]2O[C@H](C)C[C@H](N(C)C)[C@H]2O)[C@@](C)(OCC=Cc2cnc3ccccc3c2)C[C@@H](C)C(=O)[C@H](C)[C@H]2NC(=O)O[C@@]21C" 0.05 µg/mL

What do you have for CCC1OC(=O)C(C)C(=O)C(C)C(OC2OC(C)CC(N(C)C)C2O)C(C)(OCC=Cc2cnc3ccc(Cl)cc3c2)CC(C)C(=O)C(C)C2NC(=O)OC12C (stereo not drawn) ? 0.05 µg/mL
